FYI, the data here is from the DeepSol protein solubility set.

# protocol_text: soluble on expression in E. coli; label from the status in PepcDB or PDB records
measured_parameter: soluble on expression in E. coli

# annotated cases, reported soluble on expression in E. coli shown
sequence_entry=MGSSHHHHHHSSGLVPRGSSGHVGLRNLGNTCFLNAVLQCLSSTRPLRDFCLRRDFRQEVPGGGRAQELTEAFADVIGALWHPDSCEAVNPTRFRAVFQKYVPSFSGYSQQDAQEFLKLLMERLHLEINRRGRRAPPILANGPVPSPPRRGGALLEEPELSDDDRANLMWKRYLEREDSKIVDLFVGQLKSCLKCQACGYRSTTFEVFCDLSLPIPKKGFAGGKVSLRDCFNLFTKEEELESENAPVCDRCRQKTRSTKKLTVQRFPRILVLHLNRFSASRGSIKKSSVGVDFPLQRLSLGDFASDKAGSPVYQLYALCNHSGSVHYGHYTALCRCQTGWHVYNDSRVSPVSENQVASSEGYVLFYQLMQEPP value_observed=soluble
sequence_entry=MGSDKIHHHHHHMTPTADIWFKDTLAAHFTRDGDQTTFSYTADYAGPPIATSLPINSEPVITRSGAIPPFFAGLLPEGRRLSSLRRNIKASADDELSLLLAVGADPVGAVAIFPHGENPQPAPPTVDFDDELDFSAALTESGIADPVALAGVQDKASARTIAVPVASDAILKLSPPEYPYLVENEAACYQLLTKNKLRIELSKVEVLHDKHGRSGLLVHRFDRTPKGKIPVEDAGQVLGIWPADKYLVSYEDIAQALTKVCASPILAMRNLAFQIAVAWLSGNGDLHAKNISIINKGRGFEISPIYDIPATAVYGDTTMALEIQGSKKDLSQKKFLKFCTSIGLPEKTAMSVANAALLATENAAETILASGNFDTRMNRDLARVLKHRRSAWGA value_observed="not soluble"
sequence_entry=MAHHHHHHMTNDTEQEQSPSAELAAAAPEPQPSQPQEFYSLRGESHNAVDQEKYGRARTHIAGLGHVSAKDVFKHYRRSWLTPFFGSNEPEPTLQQEGTQHPCQIFSREVHQCLEDHHNSFAFCQTRVAAFQQCLREFSI value_observed="not soluble"
sequence_entry=MGSDKIHHHHHHMLQQYHTKLKGTLALTDSYLTEKALQKEKGLYKFIWVRQGSITVEIDHQEMVLSKDDVISLTHLQHLEFKSIDGEYMTLLFNSNFYCIYGNDHEVSCSGFLFNGSSHLVRFTLNEEERRQLDQITEAMENEFTVSDSLQEEMLRILLKRFIIQCTRIARQRLDITREKESGFEIVRQYYNLVDEHYRTKKQVQDYADMLHKSPKTLSNIFSTCKLPSPLRVIHERVEAEAKRLLLYSNKSAKEIADILGFEDQASFSRFFKNMTGQSAVQFRNTEVGKN value_observed="not soluble"

Notebook: MQQPEQYCRFLCLVAHEFFHLWNIKRIRPQAFEVFDYDSENYTTSLWFVEGVTSYFDQLIPLWAGLFDAPTYLKLLSDSLNRYFHTPGRFVQSLSAASFDAWIKLYRPDENSINSQMSYYLKGELVALLLDLRLEHHHHHH , soluble on expression in E. coli read as not soluble

Notebook: MSLTGRAFAIPLRTRFRGITVREGMLVRGAAGWGEFSPFAEYGPRECARWWAACYEAAELGWPAPVRDTVPVNATVPAVGPEEAARIVASSGCTTAKVKVAERGQSEANDVARVEAVRDALGPRGRVRIDVNGAWDVDTAVRMIRLLDRFELEYVEQPCATVDELAEVRRRVSVPIAADESIRRAEDPLRVRDAEAADVVVLKVQPLGGVRAALRLAEECGLPVVVSSAVETSVGLAAGVALAAALPELPYACGLATLRLLHADVCDDPLLPVHGVLPVRRVDVSEQRLAEVEIDPAAWQARLAAARAAWEQVEREPGPEGHHHHHH , soluble on expression in E. coli read as soluble

Notebook: MGSDKIHHHHHHMNNTRSAYEKIIKDLQGVGFSDYEAKTYIALLLTPNATAYEISKEAGIPKANCYSVLEALRKNGAVQAVSENPVKYVAVDPNRYFNQMVELTQLRCEDLKESLKNIGHLPQEDLVWSLNDAAAVGLHIEKMIGSARDTIRIKAADTTLEPHLPSLKKAARRGVKVLIILFGEDVRPFELGKNCKVYLHEGNGIRVGISHKLITVTRDYKEALVAEVGRDAYGSYTENKPIVTLADSLLRHEIYFAEIFSCFGDEIQEKFGPALVKLRESYLPADQADALKVFLETADPARLAGKATAA , soluble on expression in E. coli read as not soluble

Notebook: GMDTRKLLLTAQEISRMKGEHKVHFLNPGAVRVNKSLGDAVGLRHMGIHLIQIEPGKESTEYHLHHYEEEAVYVLSGKGTLTMENDQYPIAPGDFVGFPCHAAAHSISNDGTETLVCLVIGQRLDQDVVDYPNQHKRLYRNNGEWNLVDMADIRVLREPTQK , soluble on expression in E. coli read as soluble

Notebook: MGSDKIHHHHHHMDLQYLDNFLALAHYRSFSAAADACYISQSSFSKRIMRLENNLGVTLFERSTRQVSLTEYGQIYLKYAQQIKTLSRQATDEINRRHAEDEGIVIGGIPSISEYGILDLISGFIKTTHIHCQVKSAPSEDLEPMLLNQTLDFAFIKEVHHTNLFYQLPYAEDHLVAVLPANHPLANLSEIKLQQLANEDFIFQPVNSRPYELCMMICKQNGFTPNVIYADRIIENILNFVKKGLGVSLLMEKLVPKDSELICLPIHPAVVADINLCYLKKEPLSQYGYAFLNYFSHQNNAR , soluble on expression in E. coli read as not soluble

Notebook: MAHHHHHHMNDSISSPIKATCRDMALKSSLHSFTFSLKDFDIAGFLGDGAHGSVFLACERRTNFICVLKCISKSHLVKSTQEALLRKEIELQAHLKHPHIACMYTWFHTSSHVFFVMEYCSNGDLFTYLNENGPFCEKKVAEMLFEIIWAIRTCHDKRIAHLDLKPENVLVNHEEKCKLADFGLSAHIGSKHKKKGISHYRGTHDYWSPEQCARHQKKKQNFGEFDQKTDIWTLGILAFELKFGRPPFGSTNEERENVIMNRIQDYHWSQLFCEKVKQDLIDKLSPEFKDFLNLCLDKNPKKRPTAESLIQHPFIFIHNKNRSCIKSYATQPRGKQGPKLSHKGFNEQDGSFLTPIWFHNK , soluble on expression in E. coli read as soluble

Notebook: MAGQSKIIVGGVIGGTSEQEPKGFLDLPVELYQKIIGKLDLHERFRVRKSNQTLRQFIDQMDPAISQIRVSISDSDKCDDWVSRSVRVMAEMLSSSIYPDVKNISTCGLPSSQIAQILPSFQAGKLENLDLYYCGKPTAEDMETIVNSDQWKNAKNISGFRGLSNIRIKDLLHFSLVCVDYATISVETAIEIKDILLTSSNIKHAYFTSKSVLDVNVIRVFDPKAAKVHRKRNLSNLVRNTDFADFTFSSNQKVLRFKKKN , soluble on expression in E. coli read as not soluble
